Tested on: NCI/ADR-RES ovarian
Experiment: NCI-60 one-dose screen, 48 h (100 = growth as untreated, 0 = no growth, -100 = all killed)
Settings: 10 µM unless noted
Experimental: Growth inhibition of the NCI/ADR-RES human […] tumor cell line is measured as a screen for anti-cancer activity. Cells are grown in 96 well plates and exposed to the test compound for 48 hours. Compounds are tested at a single concentration, which is 10^-5 M for most compounds. The reported endpoint is percent growth (GI% or GIPRCNT), where numbers from 0 - 100% represent growth inhibition, and numbers from -100% - 0 represent cell death. For example, a value of 40 represents 60% growth inhibition. […]
Compounds without any hit were thinned out: in the full panel of roughly 83,000, 20% have a hit. Active and inactive are the calls of the source. The calls were made as follows: active = growth percent below 10; inactive = the rest.
Reported property: growth

Consider the worked cases shown below.
COC(=O)[C@]12CC[C@@H](C)[C@H](C)[C@@H]1C1=CC(=O)[C@@H]3[C@@]4(C)C[C@@H](O)[C@H](O)[C@@]5(C)COC(=C45)C[C@@]3(C)[C@]1(C)CC2 :: 20.8% (inactive)
NCCNc1nc(-c2ccccc2)nc2nc(-c3ccccc3)oc12 :: 91.8% (inactive)
CCOc1ccc(NC(=O)c2ccoc2COc2ccccc2)cc1 :: 102% (inactive)

GET /value?item= CCCCC[C@H]1CC=C2C(=O)C=C[C@@H]2CC=CCCCC(=O)O[C@@H](CCCCC)CC=C2C(=O)C=C[C@@H]2CC=CCCCC(=O)O[C@@H](CCCCC)CC=C2C(=O)C=C[C@@H]2CC=CCCCC(=O)O1 &field=growth returns 49.8% [8.75 µM] (inactive)

GET /value?item= c1ccc(CN2C(c3ccccc3)=Nc3ccccc3C2c2c[nH]c3ccccc23)cc1 (configuration not stated) &field=growth returns 30.2% (inactive)

GET /value?item= COc1ccc(C(=O)/C=C/c2cc(-c3cc(OC)c(OC)c(OC)c3)n[nH]2)cc1OC &field=growth returns 15% (inactive)

GET /value?item= Cn1cc(-c2nc(-c3c[nH]c4ncccc34)cs2)c2cc(Br)ccc21 &field=growth returns 75% (inactive)

GET /value?item= COC(=O)[C@]12CC[C@@H](C)[C@H](C)[C@@H]1C1=CC[C@@H]3[C@@]4(C)C=C(O)C(=O)C(C)=C4CC[C@@]3(C)[C@]1(C)CC2 &field=growth returns 38.8% (inactive)

GET /value?item= Cn1cccc1/C=C1/SC(=S)N(CCc2ccc(O)cc2)C1=O &field=growth returns 16.3% (inactive)

GET /value?item= NS(=O)(=O)c1ccc(CCNC(=O)/C=C/c2ccc(Cl)cc2)cc1 &field=growth returns 103% (inactive)

GET /value?item= CC[C@H](CC[C@@H](C)[C@H]1CC[C@H]2[C@@H]3/C(=C/c4cccnc4)C(=O)C4=CC(=O)CC[C@]4(C)[C@H]3CC[C@]12C)C(C)C &field=growth returns 90.5% (inactive)

Source listed as PubChem BioAssay (NCI).
